For each record, write down the corresponding % CGN Survival.
tested on: CGNs; assay: Ceramide Killing of CGNs; format: cell-based, CD1 mice; conditions: ceramide 100 uM; drug 10 μM
Return type: number; implicit unit %.

Look up and report measured % CGN Survival for this entry: `COc1ccc2c(c1)c(C1=CC(=O)NC1=O)cn2S(=O)(=O)c1ccc(C)cc1`
9.1

Look up and report measured % CGN Survival for this entry: `O=C1NC(=O)c2c1c1c3ccccc3[nH]c1c1cc3ccccc3n21`
18.0

Look up and report measured % CGN Survival for this entry: O=C1NC(=O)C2=C1c1c([nH]c3ccccc13)C1Cc3ccccc3N21 (stereo not shown)
10.7

Look up and report measured % CGN Survival for this entry: `O=C1C=C(c2c[nH]c3ccc(OCc4ccccc4)cc23)C(=O)N1`
5.1
